- ASSAY SYSTEM: UniProt P00797
- Sequence (P00797 whole entry): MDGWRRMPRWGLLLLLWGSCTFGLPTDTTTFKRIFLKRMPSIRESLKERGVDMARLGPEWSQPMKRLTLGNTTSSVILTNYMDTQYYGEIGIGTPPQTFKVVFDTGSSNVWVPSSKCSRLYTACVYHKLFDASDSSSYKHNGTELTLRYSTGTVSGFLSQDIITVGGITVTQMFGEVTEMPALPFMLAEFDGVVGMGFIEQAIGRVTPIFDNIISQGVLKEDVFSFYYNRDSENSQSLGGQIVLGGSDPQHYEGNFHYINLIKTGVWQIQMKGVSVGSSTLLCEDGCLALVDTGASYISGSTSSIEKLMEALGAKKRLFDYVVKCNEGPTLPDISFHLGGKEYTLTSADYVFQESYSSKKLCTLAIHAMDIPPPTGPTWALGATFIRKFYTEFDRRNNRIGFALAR
- METHOD DESCRIPTION: Inhibition of human plasma renin
- Assay type: cell-free
MEASURE NAME: IC50 (nM)

[[record]]
structure_string = "CCCCNC(=O)[C@@H](C[C@H](O)[C@H](CC1CCCCC1)NC(=O)[C@H](CCCC)NC(=O)[C@H](Cc1ccccc1)NC(C)=O)C(C)C"
measure_name = "IC50"
unit_abbreviation = "nM"
test_result = 0.84


---

- ASSAY SYSTEM: Somatostatin receptor type 3 (Homo sapiens)
- Sequence (P32745 whole entry): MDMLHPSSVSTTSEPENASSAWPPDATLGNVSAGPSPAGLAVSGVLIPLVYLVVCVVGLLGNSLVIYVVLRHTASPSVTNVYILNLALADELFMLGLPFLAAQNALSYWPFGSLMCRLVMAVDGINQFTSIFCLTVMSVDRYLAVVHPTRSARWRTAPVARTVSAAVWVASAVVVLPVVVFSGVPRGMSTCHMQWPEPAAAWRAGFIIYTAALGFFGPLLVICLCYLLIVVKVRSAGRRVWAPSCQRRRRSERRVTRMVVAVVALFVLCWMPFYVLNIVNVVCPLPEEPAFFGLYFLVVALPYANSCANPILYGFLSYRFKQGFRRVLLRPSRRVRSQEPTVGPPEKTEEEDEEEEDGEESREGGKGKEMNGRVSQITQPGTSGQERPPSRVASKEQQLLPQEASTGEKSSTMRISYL
pIC50: −log10 of the molar value. Where a SMILES comes first, the peptide text is derived from it.
MEASURE NAME: pIC50

[[record]]
molecule = "CC(=O)N[C@@H](Cc1ccccc1)C(=O)N[C@@H](Cc1c[nH]c2ccccc12)C(=O)N[C@@H](CCCCN)C(=O)N[C@H](C(N)=O)[C@@H](C)O (Ac-FWKT-NH2)"
test_result = "< 6.00"


---

- ASSAY SYSTEM: Neprilysin (Homo sapiens, UniProt P08473)
- Sequence (P08473 whole entry): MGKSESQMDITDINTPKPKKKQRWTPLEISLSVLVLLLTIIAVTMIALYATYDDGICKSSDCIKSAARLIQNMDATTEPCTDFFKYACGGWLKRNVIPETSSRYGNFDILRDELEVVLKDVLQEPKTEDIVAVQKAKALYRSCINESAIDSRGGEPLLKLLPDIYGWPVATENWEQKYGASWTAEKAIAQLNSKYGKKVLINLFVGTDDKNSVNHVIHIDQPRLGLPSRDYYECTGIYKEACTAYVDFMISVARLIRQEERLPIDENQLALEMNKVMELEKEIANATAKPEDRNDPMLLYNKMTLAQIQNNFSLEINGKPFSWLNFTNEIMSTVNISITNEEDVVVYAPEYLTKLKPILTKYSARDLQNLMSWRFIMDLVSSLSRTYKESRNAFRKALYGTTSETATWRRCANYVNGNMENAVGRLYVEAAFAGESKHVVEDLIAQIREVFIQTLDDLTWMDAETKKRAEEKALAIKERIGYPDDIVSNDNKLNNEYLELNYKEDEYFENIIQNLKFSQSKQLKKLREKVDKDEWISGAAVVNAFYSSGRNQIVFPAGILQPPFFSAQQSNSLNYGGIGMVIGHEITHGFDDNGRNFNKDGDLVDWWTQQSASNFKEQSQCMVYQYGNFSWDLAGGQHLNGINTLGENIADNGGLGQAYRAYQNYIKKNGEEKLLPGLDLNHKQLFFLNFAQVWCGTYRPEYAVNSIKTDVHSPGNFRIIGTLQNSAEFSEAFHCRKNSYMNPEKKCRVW
MEASURE NAME: Ki

[[record]]
structure_string = "CC(C)C[C@@H](C(=O)O)N1Cc2ccccc2C[C@H](NC(=O)[C@@H](S)Cc2ccccc2)C1=O"
test_result = "0.4 nM"


---

Documented Ki across a set of compounds
- ASSAY SYSTEM: B2 bradykinin receptor (Homo sapiens, UniProt P30411)
- Sequence (P30411 whole entry): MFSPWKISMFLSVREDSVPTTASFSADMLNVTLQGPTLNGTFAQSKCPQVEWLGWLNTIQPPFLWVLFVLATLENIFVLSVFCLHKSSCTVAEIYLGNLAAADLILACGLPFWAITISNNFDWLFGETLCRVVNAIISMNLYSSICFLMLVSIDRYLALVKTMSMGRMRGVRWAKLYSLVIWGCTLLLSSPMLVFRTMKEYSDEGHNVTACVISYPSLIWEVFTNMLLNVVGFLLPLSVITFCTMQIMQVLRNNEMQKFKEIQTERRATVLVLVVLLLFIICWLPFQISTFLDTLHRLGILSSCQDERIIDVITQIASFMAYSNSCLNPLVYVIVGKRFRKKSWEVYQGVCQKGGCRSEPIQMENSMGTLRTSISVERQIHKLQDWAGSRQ
- METHOD DESCRIPTION: Binding affinity to B2 bradykinin receptor (unknown origin)
- CONDITION INFO: read-out: pKi (converted)
MEASURE NAME: Ki (nM)

[[record]]
compound = "N=C(N)NCCC[C@@H](N)C(=O)N[C@@H](CCCNC(=N)N)C(=O)N1CCC[C@H]1C(=O)N1C[C@H](O)C[C@H]1C(=O)NCC(=O)N[C@@H](Cc1cccs1)C(=O)N[C@@H](CO)C(=O)N1CCC[C@]12Cc1ccccc1CN(CC(=O)N[C@@H](CCCNC(=N)N)C(=O)O)C2=O"
measure_name = "Ki"
test_result = 25.1

[[record]]
compound = "N=C(N)NCCC[C@@H](N)C(=O)N[C@@H](CCCNC(=N)N)C(=O)N1CCC[C@H]1C(=O)N1C[C@H](O)C[C@H]1C(=O)NCC(=O)N[C@@H](Cc1cccs1)C(=O)N[C@@H](CO)C(=O)N1CCC[C@@]12Cc1ccccc1CN(CC(=O)N[C@@H](CCCNC(=N)N)C(=O)O)C2=O"
measure_name = "Ki"
test_result = 3.16

[[record]]
compound = "N=C(N)NCCCC(NC(=O)CN1CCCCC2(CCCN2C(=O)[C@H](CO)NC(=O)[C@H](Cc2ccccc2)NC(=O)CNC(=O)[C@@H]2CCCN2C(=O)[C@@H]2CCCN2C(=O)[C@@H](N)CCCNC(=N)N)C1=O)C(=O)O (mixture of isomers; 68)"
measure_name = "Ki"
test_result = 251

[[record]]
compound = "N=C(N)NCCC[C@H](NC(=O)CN1Cc2ccccc2C[C@@H](NC(=O)[C@H](CO)NC(=O)[C@H](Cc2ccccc2)NC(=O)CNC(=O)[C@@H]2CCCN2C(=O)[C@@H]2CCCN2C(=O)[C@@H](N)CCCNC(=N)N)C1=O)C(=O)O"
measure_name = "Ki"
test_result = 2510

